Tested on: NCI-H727
Assay: relative viability (nuclei count vs DMSO), 5 days (fraction); higher = more cells survive
Details: first compound 0.4 µM
Measure Name: relative viability
No unit in the answer, please; the number alone is enough.

Examples with their reported relative viability follow.
>>> reading("Cc1sc2c(c1C)C(c1ccc(Cl)cc1)=N[C@@H](CC(=O)OC(C)(C)C)c1nnc(C)n1-2 [JQ1] + C[C@]1(O)C[C@@H](c2nc(-c3ccc4ccc(-c5ccccc5)nc4c3)c3c(N)nccn32)C1 [Linsitinib] (partner 1 µM)")
0.343
>>> reading("Cc1sc2c(c1C)C(c1ccc(Cl)cc1)=N[C@@H](CC(=O)OC(C)(C)C)c1nnc(C)n1-2 [JQ1] + CS(=O)(=O)CCNCc1ccc(-c2ccc3ncnc(Nc4ccc(OCc5cccc(F)c5)c(Cl)c4)c3c2)o1 [Lapatinib] (partner 2 µM)")
0.506
>>> reading("Cc1sc2c(c1C)C(c1ccc(Cl)cc1)=N[C@@H](CC(=O)OC(C)(C)C)c1nnc(C)n1-2 [JQ1] + Cc1nc(NC(=O)N2CCC[C@H]2C(N)=O)sc1-c1ccnc(C(C)(C)C(F)(F)F)c1 [Alpelisib] (partner 2 µM)")
0.445
>>> reading("Cc1sc2c(c1C)C(c1ccc(Cl)cc1)=N[C@@H](CC(=O)OC(C)(C)C)c1nnc(C)n1-2 [JQ1] + CS(=O)(=O)N1CCN(Cc2cc3nc(-c4cccc5[nH]ncc45)nc(N4CCOCC4)c3s2)CC1 [Pictilisib] (partner 1 µM)")
0.205

Data request: Provide the documented relative viability with NCI-H727 as the system for Cc1sc2c(c1C)C(c1ccc(Cl)cc1)=N[C@@H](CC(=O)OC(C)(C)C)c1nnc(C)n1-2 [JQ1] + Cc1cc(Nc2cc(N3CCN(C)CC3)nc(Sc3ccc(NC(=O)C4CC4)cc3)n2)n[nH]1 [Tozasertib] (partner 0.1 µM)
Data returned: 0.459

====

Test system: NCI-H1666
Experiment: relative viability (nuclei count vs DMSO), 5 days (fraction); higher = more cells survive
Conditions: first compound 158.11 µM
Measure Name: relative viability
No unit in the answer, please; the number alone is enough.

>>> reading("O=C(O)CCCCC(CCSCc1ccccc1)SCc1ccccc1 (stereo not drawn) [CPI-613] + Nc1nc2[nH]cc(CCc3ccc(C(=O)N[C@@H](CCC(=O)O)C(=O)O)cc3)c2c(=O)[nH]1 [Pemetrexed] (partner 0.2 µM)")
0.489
>>> reading("O=C(O)CCCCC(CCSCc1ccccc1)SCc1ccccc1 (stereo not drawn) [CPI-613] + CC(=O)Nc1cccc(-n2c(=O)n(C3CC3)c(=O)c3c(Nc4ccc(I)cc4F)n(C)c(=O)c(C)c32)c1 [Trametinib] (partner 0.02 µM)")
0.488

Data request: Value lookup for relative viability; key = O=C(O)CCCCC(CCSCc1ccccc1)SCc1ccccc1 (stereo not drawn) [CPI-613] + Cc1nc(NC(=O)N2CCC[C@H]2C(N)=O)sc1-c1ccnc(C(C)(C)C(F)(F)F)c1 [Alpelisib] (partner 2 µM)
Data returned: 0.158

====

System: NCI-H2170
Assay: relative viability (nuclei count vs DMSO), 5 days (fraction); higher = more cells survive
Settings: first compound 50 µM
Measure Name: relative viability
No unit in the answer, please; the number alone is enough.

>>> reading("O=C(O)CCCCC(CCSCc1ccccc1)SCc1ccccc1 (stereo unspecified) [CPI-613] + Cc1nc(NC(=O)N2CCC[C@H]2C(N)=O)sc1-c1ccnc(C(C)(C)C(F)(F)F)c1 [Alpelisib] (partner 2 µM)")
0.796
>>> reading("O=C(O)CCCCC(CCSCc1ccccc1)SCc1ccccc1 (stereo unspecified) [CPI-613] + Nc1nc2[nH]cc(CCc3ccc(C(=O)N[C@@H](CCC(=O)O)C(=O)O)cc3)c2c(=O)[nH]1 [Pemetrexed] (partner 0.2 µM)")
0.244
>>> reading("O=C(O)CCCCC(CCSCc1ccccc1)SCc1ccccc1 (stereo unspecified) [CPI-613] + O=C(CCCCCCC(=O)Nc1ccccc1)NO [Vorinostat] (partner 1 µM)")
0.774
>>> reading("O=C(O)CCCCC(CCSCc1ccccc1)SCc1ccccc1 (stereo unspecified) [CPI-613] + C[C@@H](Oc1cc(-c2cnn(C3CCNCC3)c2)cnc1N)c1c(Cl)ccc(F)c1Cl [Crizotinib] (partner 1 µM)")
1.13

Data request: Value lookup for relative viability; key = O=C(O)CCCCC(CCSCc1ccccc1)SCc1ccccc1 (stereo unspecified) [CPI-613] + CCNC(=O)c1noc(-c2cc(C(C)C)c(O)cc2O)c1-c1ccc(CN2CCOCC2)cc1 [Luminespib] (partner 0.01 µM)
Data returned: 0.524

Data request: How about this compound: O=C(O)CCCCC(CCSCc1ccccc1)SCc1ccccc1 (stereo unspecified) [CPI-613] + Nc1ncn([C@H]2C[C@H](O)[C@@H](CO)O2)c(=O)n1 [Decitabine] (partner 2 µM)
Data returned: 0.486
